System: Colletotrichum acutatum
Assay: Antifungal activity against Colletotrichum acutatum assessed as growth inhibition at 50 to 150 uM measured up to 72 hr by 96-well microtiter assay
Format: functional, organism-based
Activity calls are given as the source filed them. The calls are words filed in the database; no cut-off is given here.

>  <molecule>
COc1ccc([C@H]2OC[C@H]3[C@@H]2CO[C@@H]3c2ccc(OC)c(OC)c2)cc1OC [(+)-EUDESMIN]

>  <assayed target>
Colletotrichum acutatum

>  <growth inhibition (GI)>
Active

$$$$
>  <molecule>
COc1ccc2[nH]c(=O)c3c(c2c1)OC(C)(C)C=C3

>  <assayed target>
Colletotrichum acutatum

>  <growth inhibition (GI)>
Active

$$$$
>  <molecule>
COc1c2ccoc2nc2c(OC)c(OCC3OC3(C)C)ccc12 (centres undefined) [ANHYDROEVOXINE]

>  <assayed target>
Colletotrichum acutatum

>  <growth inhibition (GI)>
Active

$$$$
>  <molecule>
CC1(C)C=Cc2c(O)nc3ccccc3c2O1

>  <assayed target>
Colletotrichum acutatum

>  <growth inhibition (GI)>
Active

$$$$

---

Test system: Pseudanabaena sp.
Test: Antialgal activity against Pseudanabaena sp. LW397 assessed as inhibition measured for 96 hr
Assay type: functional, organism-based
Conditions: LW397, 96 h
pIC50: −log10 of the molar value.

>  <smiles record>
COc1ccc2[nH]c(=O)c3c(c2c1)OC(C)(C)C=C3

>  <pIC50>
5.70

$$$$

---

The compounds listed here are annotated with their inhibition at 50 µM.
System: Phomopsis obscurans
Test: Antifungal activity against Phomopsis obscurans assessed as growth inhibition at 50 uM measured at 120 hr by 96-well microtiter assay
Type: functional
Settings: Paraphomopsis obscurans
assay endpoint: inhibition at 50 µM

>  <compound>
COc1c2ccoc2nc2c(OC)c(OCC3OC3(C)C)ccc12 (centres undefined) [ANHYDROEVOXINE]

>  <assayed target>
Phomopsis obscurans

>  <value>
> 80%

$$$$
>  <compound>
COc1ccc2[nH]c(=O)c3c(c2c1)OC(C)(C)C=C3

>  <assayed target>
Phomopsis obscurans

>  <value>
> 80%

$$$$
>  <compound>
COc1ccc([C@H]2OC[C@H]3[C@@H]2CO[C@@H]3c2ccc(OC)c(OC)c2)cc1OC [(+)-EUDESMIN]

>  <assayed target>
Phomopsis obscurans

>  <value>
> 80%

$$$$
>  <compound>
CC1(C)C=Cc2c(O)nc3ccccc3c2O1

>  <assayed target>
Phomopsis obscurans

>  <value>
> 80%

$$$$
